Data origin: ChEMBL document CHEMBL1799961

molecular target: cAMP and cAMP-inhibited cGMP 3',5'-cyclic phosphodiesterase 10A (Mus musculus)
pIC50: −log10 of the molar value.
Metric: pIC50

The cases that follow already have their pIC50 on record.
*Q* Requested field: pIC50. Item: COc1cc(/C=N/NC(=O)CSc2ccncc2)cc(OC)c1OC
*A* 6.26

*Q* Fill in: pIC50 of COc1ccc(/C=N/NC(=O)COc2cc(C)nc3ccccc23)cc1OC is ___
*A* 5.80

*Q* // query pIC50 value for entry COc1cc(/C=N/NC(=O)CSc2ccnc3cc(Cl)ccc23)cc(OC)c1OC
*A* 7.55

*Q* I'd like to know its pIC50. The compound in question is COc1cc(/C=N/NC(=O)CSc2cc(C)nc3ccccc23)cc(OC)c1C#N
*A* 7.85

*Q* Query (compound): COc1cc(/C=N/NC(=O)CSc2ccc3ccccc3n2)cc(OC)c1OC ; field requested: pIC50
*A* 6.85

*Q* For the compound shown here, COc1ccc(/C=N/NC(=O)CSc2cc(C)nc3ccccc23)cc1 , give the reported pIC50.
*A* 5.85

*Q* Looking for the measured pIC50 of COc1cc(/C=N/NC(=O)CSc2cc(C)nc3ccccc23)cc(C#N)c1OC , can you help?
*A* 7.96

*Q* Look at this compound and give its reported pIC50. COc1cc(/C=N/NC(=O)CSc2ccncn2)cc(OC)c1OC
*A* 5.97

A: COc1cc(/C=N/NC(=O)CSc2cc(C)nc3ccccc23)ccc1Br
B: COc1cc(/C=N/NC(=O)CSc2ccc(-c3ccccc3)cc2)cc(OC)c1OC
C: COc1cc(/C=N/NC(=O)CSc2cc(C)nc3ccccc23)ccc1C#N
D: COc1cc(/C=N/NC(=O)CSc2cc(C)nc3ccccc23)cc(OC)c1Br
E: COc1ccc(/C=N/NC(=O)CSc2cc(C)nc3ccccc23)cc1F
*Q* Provide the items ranked by increasing pIC50. Show the ranking through the labels, in the order asked for.
*A* E, B, C, A, D
(E: 6.21, B: 6.59, C: 6.80, A: 7.03, D: 8.32)

----------
assay: Half life in rat at 4 mg/kg, iv; format: ADME, organism-based; design: dose 4 mg/kg, route intravenous; details: in vivo
Metric: half-life (h)
Only the number, expressed in h, is required.

*Q* May I ask what half-life has been recorded for COc1ccc2nc(C)cc(SCC(=O)N/N=C/c3cc(OC)c(OC)c(OC)c3)c2c1 ?
*A* 11.3

----------
experiment: Oral bioavailability in rat at 9 mg/kg; type: ADME, organism-based; conditions: in vivo
Metric: bioavailability (%)
The figure you give is taken to be in %; do not add the unit.

*Q* I am curious: what bioavailability value has been reported for COc1ccc2nc(C)cc(SCC(=O)N/N=C/c3cc(OC)c(OC)c(OC)c3)c2c1 ?
*A* 21

----------
assay: Tmax in rat at 9 mg/kg, po; assay type: ADME, organism-based; parameters: dose 9 mg/kg, route oral; conditions: in vivo
Metric: Tmax (min)
Please respond with the number in min and leave the unit unwritten.

*Q* Requested read-out: Tmax. Entry: COc1ccc2nc(C)cc(SCC(=O)N/N=C/c3cc(OC)c(OC)c(OC)c3)c2c1
*A* 15

----------
target: cAMP and cAMP-inhibited cGMP 3',5'-cyclic phosphodiesterase 10A (Mus musculus, UniProt Q8CA95)
Sequence (Q8CA95 whole entry): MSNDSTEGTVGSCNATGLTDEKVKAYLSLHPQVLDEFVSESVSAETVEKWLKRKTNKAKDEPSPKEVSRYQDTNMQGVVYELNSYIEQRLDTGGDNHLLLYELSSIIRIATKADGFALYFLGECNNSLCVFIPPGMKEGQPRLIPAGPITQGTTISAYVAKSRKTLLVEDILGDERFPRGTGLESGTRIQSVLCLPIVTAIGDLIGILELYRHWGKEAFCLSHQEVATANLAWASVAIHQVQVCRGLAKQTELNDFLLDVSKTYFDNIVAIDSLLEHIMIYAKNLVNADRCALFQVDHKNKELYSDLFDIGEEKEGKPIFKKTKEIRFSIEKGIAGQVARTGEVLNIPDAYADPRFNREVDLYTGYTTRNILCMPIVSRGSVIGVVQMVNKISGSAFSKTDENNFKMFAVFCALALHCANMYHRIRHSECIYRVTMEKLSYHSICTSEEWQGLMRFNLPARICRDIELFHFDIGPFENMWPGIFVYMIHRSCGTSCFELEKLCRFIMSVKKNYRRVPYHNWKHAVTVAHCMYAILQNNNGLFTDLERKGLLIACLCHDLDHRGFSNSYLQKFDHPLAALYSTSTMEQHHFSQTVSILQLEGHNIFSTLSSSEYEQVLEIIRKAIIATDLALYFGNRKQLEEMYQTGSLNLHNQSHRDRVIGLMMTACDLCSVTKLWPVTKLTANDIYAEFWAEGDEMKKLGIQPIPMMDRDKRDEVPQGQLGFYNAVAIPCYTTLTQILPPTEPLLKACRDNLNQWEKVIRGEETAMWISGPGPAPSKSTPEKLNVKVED
Metric: IC50 (nM)

*Q* Could you tell me which IC50 is on file for COc1ccc(/C=N/NC(=O)CNc2cc(C)nc3ccccc23)cc1OC ?
*A* 8000

*Q* Recorded IC50 for COc1cc(Cl)c(/C=N/NC(=O)CSc2cc(C)nc3ccccc23)cc1OC , please?
*A* 200

*Q* Report IC50 for COc1ccc(/C=N/NC(=O)CSc2cc(C)nc3ccccc23)cc1OC(C)C please.
*A* 660

*Q* Endpoint output: IC50 of COc1cc(/C=N/NC(=O)CSc2cc(C)nc3ccccc23)ccc1C(F)(F)F . Value?
*A* 250

*Q* // lookup IC50 for COc1cc(/C=N/NC(=O)CSc2cc(C)nc3ccccc23)cc(Cl)c1OC
*A* 45

I: COc1cc(/C=N/NC(=O)CSc2ccc(OC(F)(F)F)cc2)cc(OC)c1OC
II: COc1ccc(/C=N/NC(=O)CSc2cc(C)nc3ccccc23)cc1OC(F)(F)F
III: COc1cc(/C=N/NC(=O)CSc2cc(C)nc3ccccc23)ccc1C
IV: COc1cc(/C=N/NC(=O)CN(C)c2cc(C)nc3ccccc23)cc(OC)c1OC
*Q* Put the items in order so that reported IC50 rises from first to last. Return the labels ranked in the requested order, please.
*A* III, IV, I, II
(III: 100 nM, IV: 360 nM, I: 860 nM, II: 1700 nM)
